Property: Ratio pH 7.4/pH6.0 (of KD); scope: individual binders
TESTED_TARGET: T1, human immunoglobulin E (hIgE) (human, UniProt P01854-1 1-428)
T1 construct: also called human IgE; Native IgE (Abcam)
T1 sequence (P01854 whole entry): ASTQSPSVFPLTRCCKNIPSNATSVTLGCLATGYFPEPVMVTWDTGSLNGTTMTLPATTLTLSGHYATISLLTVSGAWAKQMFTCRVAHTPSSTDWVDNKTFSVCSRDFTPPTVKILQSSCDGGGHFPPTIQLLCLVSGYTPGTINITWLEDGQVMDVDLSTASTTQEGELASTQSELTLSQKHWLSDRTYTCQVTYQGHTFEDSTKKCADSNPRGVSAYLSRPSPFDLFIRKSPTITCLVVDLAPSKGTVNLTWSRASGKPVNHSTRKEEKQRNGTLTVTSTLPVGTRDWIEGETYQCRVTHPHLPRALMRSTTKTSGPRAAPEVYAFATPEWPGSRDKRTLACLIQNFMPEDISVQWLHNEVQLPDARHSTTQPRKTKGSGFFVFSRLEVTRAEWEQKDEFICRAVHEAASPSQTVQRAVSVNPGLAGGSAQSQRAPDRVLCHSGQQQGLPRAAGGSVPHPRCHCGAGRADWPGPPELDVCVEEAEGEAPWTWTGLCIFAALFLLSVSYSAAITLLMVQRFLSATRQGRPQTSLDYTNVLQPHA
ASSAY_TEXT: SPR (Biacore)
Please reply with the value in numeric form only.

// solved cases for Ratio pH 7.4/pH6.0 (of KD) follow
BINDER | ENDPOINT | ASSAY_VALUE
Oma VH15W100b - VL3D28HS31H (antibody, V domains shown) VH: EVQLVESGGGLVQPGGSLRLSCAVSGYSITSGHRWEWIRQAPGKGLEWVASIHYDGSTNYNPSVKGRITISRDDSKNTFYLQMNSLRAEDTAVYYCARATHYFGHHHFAVWGQGTLVTVSS VL: DIQLTQSPSSLSASVGDRVTITCRASQSVDYHGDHYMNWYQQKPGKAPKLLIEWGSYLRSGVPSRFSGSGSGTDFTLTISSLQPEDFATYYCQQNAEDPYTFGQGTKVEIK | Ratio pH 7.4/pH6.0 (of KD) | 23.5
OmaVH15G55HW100b - VL3S31H (antibody, V domains shown) VH: EVQLVESGGGLVQPGGSLRLSCAVSGYSITSGHRWEWIRQAPGKGLEWVASIHYDHSTNYNPSVKGRITISRDDSKNTFYLQMNSLRAEDTAVYYCARATHYFGHHHFAVWGQGTLVTVSS VL: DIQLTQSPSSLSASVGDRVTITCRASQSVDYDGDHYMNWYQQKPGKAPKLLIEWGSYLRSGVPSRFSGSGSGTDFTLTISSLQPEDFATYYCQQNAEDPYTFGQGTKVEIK | Ratio pH 7.4/pH6.0 (of KD) | 20.3
Oma VH15W100b - VL3S31H (antibody, V domains shown) VH: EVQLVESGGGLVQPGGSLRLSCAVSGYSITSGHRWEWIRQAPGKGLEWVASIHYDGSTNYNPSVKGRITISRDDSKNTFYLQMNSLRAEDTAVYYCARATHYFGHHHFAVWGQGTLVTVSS VL: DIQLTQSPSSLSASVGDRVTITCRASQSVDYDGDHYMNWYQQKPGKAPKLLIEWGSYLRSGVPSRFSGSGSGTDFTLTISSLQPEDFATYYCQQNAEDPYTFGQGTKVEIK | Ratio pH 7.4/pH6.0 (of KD) | 31.1
OmaVH15G55H - VL3S31H (antibody, V domains shown) VH: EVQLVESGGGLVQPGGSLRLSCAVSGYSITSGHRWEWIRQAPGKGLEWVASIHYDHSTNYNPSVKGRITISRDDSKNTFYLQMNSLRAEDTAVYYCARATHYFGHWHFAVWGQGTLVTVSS VL: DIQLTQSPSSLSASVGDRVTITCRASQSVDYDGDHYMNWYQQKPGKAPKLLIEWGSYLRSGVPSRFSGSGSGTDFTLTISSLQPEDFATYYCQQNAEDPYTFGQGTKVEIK | Ratio pH 7.4/pH6.0 (of KD) | 6.8
OMA VH15 - VL3D28H (antibody, V domains shown, also called OMA VH15 VL3D25H) VH: EVQLVESGGGLVQPGGSLRLSCAVSGYSITSGHRWEWIRQAPGKGLEWVASIHYDGSTNYNPSVKGRITISRDDSKNTFYLQMNSLRAEDTAVYYCARATHYFGHWHFAVWGQGTLVTVSS VL: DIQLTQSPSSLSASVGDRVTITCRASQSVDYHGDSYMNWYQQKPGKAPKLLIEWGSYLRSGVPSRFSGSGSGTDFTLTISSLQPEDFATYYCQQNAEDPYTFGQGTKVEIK | Ratio pH 7.4/pH6.0 (of KD) | 15.6

Q: Bench note: what Ratio pH 7.4/pH6.0 (of KD) did OmaVH15G55H - VL3D28HS31H (antibody, V domains shown) VH: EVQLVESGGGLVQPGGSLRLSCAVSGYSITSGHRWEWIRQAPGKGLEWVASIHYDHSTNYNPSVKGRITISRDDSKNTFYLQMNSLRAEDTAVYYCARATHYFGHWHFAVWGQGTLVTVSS VL: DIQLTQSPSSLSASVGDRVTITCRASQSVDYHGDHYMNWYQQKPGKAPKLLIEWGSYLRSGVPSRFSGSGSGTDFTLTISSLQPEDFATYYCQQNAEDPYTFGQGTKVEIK show?
Result: 6.4

Q: Bench note: what Ratio pH 7.4/pH6.0 (of KD) did OmaVH15G55H - VL3D28H (antibody, V domains shown, also called OmaVH15G55H VL3D25H) VH: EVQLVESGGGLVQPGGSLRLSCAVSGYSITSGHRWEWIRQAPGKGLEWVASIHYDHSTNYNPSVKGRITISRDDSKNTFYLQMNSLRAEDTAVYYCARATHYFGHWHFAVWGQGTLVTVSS VL: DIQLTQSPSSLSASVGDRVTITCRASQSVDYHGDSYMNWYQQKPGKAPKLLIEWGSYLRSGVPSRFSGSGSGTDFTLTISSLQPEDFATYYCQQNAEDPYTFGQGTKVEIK show?
Result: 6

Q: Bench note: what Ratio pH 7.4/pH6.0 (of KD) did OmaVH15G55HW100b - VL3 (antibody, V domains shown) VH: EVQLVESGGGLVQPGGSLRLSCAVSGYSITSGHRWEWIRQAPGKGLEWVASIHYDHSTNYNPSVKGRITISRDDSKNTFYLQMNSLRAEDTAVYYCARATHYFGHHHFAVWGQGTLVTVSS VL: DIQLTQSPSSLSASVGDRVTITCRASQSVDYDGDSYMNWYQQKPGKAPKLLIEWGSYLRSGVPSRFSGSGSGTDFTLTISSLQPEDFATYYCQQNAEDPYTFGQGTKVEIK show?
Result: 17.2

Q: Bench note: what Ratio pH 7.4/pH6.0 (of KD) did Oma VH15W100b - VL3D28H (antibody, V domains shown, also called Oma VH15W100b VL3D25H) VH: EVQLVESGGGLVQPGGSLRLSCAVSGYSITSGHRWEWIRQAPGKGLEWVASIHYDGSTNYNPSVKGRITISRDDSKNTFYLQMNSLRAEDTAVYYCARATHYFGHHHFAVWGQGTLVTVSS VL: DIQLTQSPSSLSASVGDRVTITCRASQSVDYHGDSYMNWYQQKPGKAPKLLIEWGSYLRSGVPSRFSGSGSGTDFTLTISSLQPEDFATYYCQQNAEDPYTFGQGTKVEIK show?
Result: 7.5

Reference for the values: patent US20220177604A1
